I'd be grateful if you could share measured IC50 for these entries.
- system_name: UniProt P29990
- Sequence (P29990 1346-1475 limits assumed): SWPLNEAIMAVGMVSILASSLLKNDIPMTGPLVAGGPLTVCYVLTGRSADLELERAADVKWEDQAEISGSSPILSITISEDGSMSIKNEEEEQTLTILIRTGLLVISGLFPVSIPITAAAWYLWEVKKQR
- Sequence (P29990 1476-2093 limits assumed): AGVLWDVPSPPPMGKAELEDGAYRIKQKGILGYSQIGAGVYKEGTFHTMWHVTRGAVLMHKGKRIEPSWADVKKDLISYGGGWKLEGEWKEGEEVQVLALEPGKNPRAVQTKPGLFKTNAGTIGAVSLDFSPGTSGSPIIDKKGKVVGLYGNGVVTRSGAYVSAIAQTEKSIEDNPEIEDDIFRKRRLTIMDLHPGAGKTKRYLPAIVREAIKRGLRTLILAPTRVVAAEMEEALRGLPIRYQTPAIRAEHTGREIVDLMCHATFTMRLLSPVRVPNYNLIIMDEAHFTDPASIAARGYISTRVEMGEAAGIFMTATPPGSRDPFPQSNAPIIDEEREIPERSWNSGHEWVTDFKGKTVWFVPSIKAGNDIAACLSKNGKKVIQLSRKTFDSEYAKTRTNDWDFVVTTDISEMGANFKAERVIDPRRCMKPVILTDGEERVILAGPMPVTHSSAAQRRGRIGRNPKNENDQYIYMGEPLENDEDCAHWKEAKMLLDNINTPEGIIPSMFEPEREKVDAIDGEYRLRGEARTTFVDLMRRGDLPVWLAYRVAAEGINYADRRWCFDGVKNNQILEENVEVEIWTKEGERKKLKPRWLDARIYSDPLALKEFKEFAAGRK
- assay_overview: Inhibition of DENV2 NS2B-NS3 protease using […] as substrate preincubated for 10 mins followed by substrate addition and incubated for 60 mins by fluorescence spectroscopy assay
Numbers only, in µM.

Worked examples follow.
>>> df
                                smiles_code  readout_kind  obs_value
0  O=C1/C(=C\c2ccc([N+](=O)[O-])cc2)CN(CC(=O)c2ccc(F)cc2)C/C1=C/c1ccc([N+](=O)[O-])cc1          IC50       15.2
1  COc1ccc(C(=O)CN2C/C(=C/c3ccc([N+](=O)[O-])cc3)C(=O)/C(=C\c3ccc([N+](=O)[O-])cc3)C2)cc1          IC50       16.2

Switching to the query record.
Read off the recorded IC50 for `COc1cc(O)c(C(=O)[C@@H]2[C@H](CC=C(C)C)C(C)=CC[C@H]2c2ccccc2)c(O)c1`
57.3
